Entry source: PubChem BioAssay (NCI)

Each entry below lists one item and its recorded growth value.
# Test system: NCI-H322M lung
# Experiment Description: NCI-60 one-dose screen, 48 h (100 = growth as untreated, 0 = no growth, -100 = all killed)
# Measurement Conditions: 10 µM unless noted
This is part of a sample that, as a whole, favours compounds with a hit. Of some 83,000 tested, about 20% had one in any assay. Activity calls are given as the source filed them. How the source made its calls: active means growth percent below 10; inactive means the rest.
Measurement Type: growth

Compound	Value
CCCCNc1ccc(-c2ccc(NCCCC)cc2)cc1	95.9% (inactive)
C=CC(C)C(C)(C)O (centres undefined)	98.3% (inactive)
NC(=S)N/N=C/c1ccc(OC(=O)COc2ccc(Cl)cc2)cn1	42.5% (inactive)
CC1(c2ccccc2)CO1 (centres undefined)	125% (inactive)
Cn1c(=O)c2nc3c(=O)n(C)c(=O)n(C)c3nc2n(C)c1=O	101% (inactive)
O=c1[nH]c(=O)c2cc(Cl)cc(Cl)c2[nH]1	94.8% (inactive)
OCC(O)COc1ccc(Cl)cc1Cl (centres undefined)	95.1% (inactive)
O=C(O)c1ccc(OCc2ccccc2)cc1	93.5% (inactive)
Cc1[nH]nc(C(N)=O)c1[N+](=O)[O-]	105% (inactive)
CN(C)c1ccc2c(N(C)C)cc(N(C)C)nc2c1	64.9% (inactive)
CC(=O)N(CCCCCCN(C(C)=O)C(C)=O)C(C)=O	108% [100 µM] (inactive)
C=COC(=O)CCOCC(CC)CCCC (centres undefined)	98.7% (inactive)
Nc1ncnc(Nc2ccccc2)n1	104% (inactive)
O=C(c1ccccc1O)N1CCCC1	101% (inactive)

====

Each entry below lists one item and its recorded growth value.
# Tested on: CCRF-CEM leukemia
# Experiment Description: NCI-60 one-dose screen, 48 h (100 = growth as untreated, 0 = no growth, -100 = all killed)
# Measurement Conditions: 10 µM unless noted
This is part of a sample that, as a whole, favours compounds with a hit. Of some 83,000 tested, about 20% had one in any assay.

Compound	growth [%]
Cc1ccc(S(=O)(=O)CCCl)cc1	101
C=CCS(C)(=O)=O	110
O=C1C=C[C@H](O)[C@@]2(CO)O[C@@H]12	-51
O=C(CCl)Oc1ccc([N+](=O)[O-])cc1	95.9
O=C(O)c1ccccc1Cc1ccc2c(c1)CCCC2	106
OC(CBr)CCBr (configuration not stated)	88.2
Cc1cccc2ccccc12	102
CC(C)C(C)(C)C(=O)C(C)(C)C(C)(C)C	107
C=COC(=O)C(C)(C)C	91.9
Cc1ccc2[nH]c3ccccc3c2c1	92.8
Cc1ccc(S(=O)(=O)NC(=O)NCCSSCCNC(=O)NS(=O)(=O)c2ccc(C)cc2)cc1	99.1
O=C(c1ccccc1O)N1CCCC1	100
OCCc1ccc(Cl)cc1	96.9
CC(C)c1ncc([N+](=O)[O-])n1C	102
Cc1onc(-c2ccccc2Cl)c1C(=O)Cl	90.9
CN=S(=O)(OCCCCCOS(=O)(=NC)c1ccc(C)cc1)c1ccc(C)cc1 (configuration not stated)	39.6
OCCOc1ccc(-c2cc(-c3ccccn3)nc(-c3ccccn3)c2)cc1	3.02
CC(=O)[C@@]1(O)CC[C@H]2[C@@H]3CC[C@@H]4CC(=O)CC[C@]4(C)[C@H]3[C@@H](O)C[C@@]21C	94.1
COc1nc2ccccc2s1	102
CCNc1ncnc2[nH]ncc12	30.1
Nc1ccc(F)c(Cl)c1F	99.4
O=C1C=CC(=O)C2=C1CCCC2	18.8
O=c1n(CC2CO2)c(=O)n(CC2CO2)n1CC1CO1 (configuration not stated)	37.5
Cn1c2ccccc2c2nnc(NCCCCO)nc21	107
NC(=S)N/N=C/c1ccc(OC(=O)COc2ccccc2)cn1	18.9
CC(C)C1CCC(C)C(O)C1 (configuration not stated)	96.1
Nc1cc2ccccc2c(O)c1O	19.6
O=C(Nc1cccc(Cl)c1)c1ccc(Cl)cc1Cl	89.6
Nc1nc(Cl)cc(Cl)n1	108
Cc1cccc(C)c1NC(=S)/N=C\c1c(O)[nH]c(=O)[nH]c1=O	98.9
CCOP(=O)(OCC)/C(=C\N1C(=O)CC(=O)NC1=S)C(=O)OC	103
O=c1nc(Nc2cccc(Cl)c2)oc2cc(Cl)oc(=O)c12	56.7
CCOC(=O)N[C@H]1CCc2cc(OC)c(OC)c(OC)c2-c2ccc(SC)c(=O)cc21	21.9
O=S(=O)(c1ccc(NC(=S)NCc2cccnc2)cc1)N1CCCCC1	29
O=c1[nH]c(=O)c2cc(Cl)cc(Cl)c2[nH]1	99.6
c1ccc2[nH]c(Cc3nc4ccccc4[nH]3)nc2c1	27.9
CCCc1cccc(CCC)c1NC(=O)Nc1cc(Cl)cc(Cl)c1	91.6
S=C=Nc1ccc2ccccc2c1	106
NC(CCl)=NCC12CC3CC(CC(C3)C1)C2	-15.8
CCOC(=O)/C(C#N)=C\c1c[nH]c2ccccc12	108
C/C(O)=C(/C=N\C(=S)Nc1ccc(S(=O)(=O)Nc2nccs2)cc1)C(=O)Nc1ccccc1C	87.4
CCOC(=O)/C(O)=C(\C=N\C(=S)Nc1ccc(Cl)c(Cl)c1)C(=O)OCC	97.7
COc1cc(-c2ccc(NC(=O)CC(C)=O)c(OC)c2)ccc1NC(=O)CC(C)=O	100
Cc1ccccc1NC(=O)Oc1ccc(Cl)cc1C(=O)c1ccccc1	96.5
O=C(c1ccccc1)c1ccc(-c2ccc(O)cc2)cc1	60.7
CCOC(=O)C1(N)CCCCC1	98.1
CC(C)(C)CC1(C)NC(=O)NC1=O (configuration not stated)	-59.7
O=C(O)C1CCCN1C(=O)OCc1ccccc1 (configuration not stated)	112
Clc1cccc(Cl)c1C1CSc2ccccc2N=C1c1ccccc1 (configuration not stated)	-12.9
CCC(=O)Oc1ccc2ccccc2c1	89.8
CC(=O)c1ccc(C)cc1	108
Nc1ncnc(Nc2ccc(C(F)(F)F)cc2)n1	116

====

# Test system: SN12C renal
# Experiment Description: NCI-60 one-dose screen, 48 h (100 = growth as untreated, 0 = no growth, -100 = all killed)
# Measurement Conditions: 10 µM unless noted
This is part of a sample that, as a whole, favours compounds with a hit. Of some 83,000 tested, about 20% had one in any assay. Activity calls are given as the source filed them. How the source made its calls: active means growth percent below 10; inactive means the rest.
Measurement Type: growth

Compound	Measurement Type	Value
CC(C)c1ccccc1NC(=O)N1CCC(C(C)C)CC1	growth	106% (inactive)
CC(C)Sc1ncnc2nc[nH]c12	growth	96.7% (inactive)
CCC12OC(COc3ccccc3)CN1CCN2c1ccccc1 (stereo not drawn)	growth	96.1% [100 µM] (inactive)
O=C(O)Cc1ccccn1	growth	112% (inactive)
Cc1ccc(S(=O)(=O)CCCl)cc1	growth	99% (inactive)
O=C(O)CCCCCNC(=O)OCc1ccccc1	growth	97% (inactive)
CC(=O)c1cccc(NS(=O)(=O)c2ccc(C)cc2)c1	growth	89.1% (inactive)
Nc1c(Br)cc(O)c2c1C(=O)c1ccccc1C2=O	growth	80.9% (inactive)
CCCCNc1ccc(-c2ccc(NCCCC)cc2)cc1	growth	81.4% (inactive)
C=CCS(C)(=O)=O	growth	98.1% (inactive)
CC(CC(CCC(=O)O)(c1ccccc1)c1ccccc1)N(C)C (stereo not drawn)	growth	99.2% (inactive)
CC(=O)NCNC(C)=O	growth	109% (inactive)
CCOC(=O)c1ccc(Nc2sc(C(=O)c3ccc(Br)cc3)c(N)c2C#N)cc1	growth	43.9% (inactive)

====

# Test system: UACC-257 melanoma
# Experiment Description: NCI-60 one-dose screen, 48 h
# Measurement Conditions: 10 µM unless noted
The panel holds about 83,000 compounds, 20% with a hit somewhere; the sample as a whole holds those more often. The source made the active and inactive calls. The calls were made as follows: active = growth percent below 10; inactive = the rest.
Outcomes: active, inactive

Molecule	Class Name
Nc1nc2nnc(-c3ccccc3)c(-c3ccccc3)n2n1	inactive
CC1(c2ccccc2)CO1 (configuration not stated)	inactive
COc1ccc2c(Cl)cc(NC(=O)Nc3c(C)cccc3C)nc2c1	inactive
CCOC(=O)c1cc(Cl)c(O)c(Cl)c1	inactive
CC1(C)OC2C(CO)OC(n3ccc(=O)[nH]c3=O)C2O1 (configuration not stated)	inactive
CCN(CC)CCOC(=O)Nc1c(C(C)C)cccc1C(C)C	inactive
CC1(C)C2CCC1(C)C1(C2)OCCS1 (configuration not stated)	inactive
CN(C)c1ccc(/C=C/C(=O)c2ccc(NC(N)=O)cc2)cc1	inactive
CSCC[C@@H]1C(=O)N(C)[C@H](C(C)(C)C)N1C(=O)c1ccccc1	inactive
C[n+]1c(/C=C\C=C\N2CCCCC2)sc2ccccc21	active
OCC(O)COc1ccc(Cl)cc1Cl (configuration not stated)	inactive
CC(CC(CCC(=O)O)(c1ccccc1)c1ccccc1)N(C)C (configuration not stated)	inactive

====

Each entry below lists one item and its recorded growth value.
# System: A498 renal
# Experiment Description: NCI-60 one-dose screen, 48 h (100 = growth as untreated, 0 = no growth, -100 = all killed)
# Measurement Conditions: 10 µM unless noted
Compounds without any hit were thinned out: in the full panel of roughly 83,000, 20% have a hit. Activity calls are given as the source filed them. The calls were made as follows: active = growth percent below 10; inactive = the rest.
Measurement Type: growth

Compound	Measurement Type	Value
O=C(O)Cc1ccccn1	growth	94.4% (inactive)
Oc1cccc(CNC2CCCCC2)c1	growth	136% (inactive)
CC(=O)OCC1OC(n2cnc3c(=S)nc(N)[nH]c32)C(OC(C)=O)C1OC(C)=O (configuration not stated)	growth	105% (inactive)
Cc1onc(-c2c(F)cccc2Cl)c1-c1ncc(-c2ccc(Br)cc2)o1	growth	86.4% (inactive)
CC(CC(CCC(=O)O)(c1ccccc1)c1ccccc1)N(C)C (configuration not stated)	growth	95% (inactive)
Cc1ccc(C2CCCCC2)cc1Br	growth	88.6% (inactive)
CCOc1ccc(C(=O)NCC(C)C)cc1	growth	92.1% (inactive)
Cn1c(=O)c2nc3c(=O)n(C)c(=O)n(C)c3nc2n(C)c1=O	growth	126% (inactive)
CN(C)c1ccc(O)c2c1CC1CC3C(N(C)C)C(=O)C(C(N)=O)=C(O)C3(O)C(=O)C1=C2O (configuration not stated)	growth	26.2% (inactive)
O=c1[nH]c(=O)c2cc(Cl)cc(Cl)c2[nH]1	growth	121% (inactive)
COc1c(CNC(=O)CCl)cc2[nH]c(C)cc2c1CNC(=O)CCl	growth	84.4% (inactive)
CCNc1ncnc2[nH]ncc12	growth	96.9% (inactive)
